tested on: HCI11 (cells of an ER-positive luminal breast cancer xenograft); test: cell viability (% of vehicle); higher = less cytotoxic; conditions: 10 µM; 72 h
Readout label: cell viability
Reply briefly: the number, and no unit.

See these solved cases before continuing.
Molecule	cell viability
CN1CC(=O)N2[C@H](c3ccc4c(c3)OCO4)c3[nH]c4ccccc4c3C[C@@H]2C1=O	141
CCOC(=O)C(CCc1ccccc1)NC1CSC(c2cccs2)CN(CC(=O)O)C1=O.Cl (stereo not drawn) [Temocapril HCl]	82.3
NC(=O)c1ncn(C2OC(CO)C(O)C2O)c1O (stereo not drawn)	88.8
CC(O)C1C(=O)N2C(C(=O)O)=C(SC3CNC(C(=O)N(C)C)C3)C(C)C12 (stereo not drawn)	95.1
Cc1cccc(C)c1OCC(=O)NC(Cc1ccccc1)C(O)CC(Cc1ccccc1)NC(=O)C(C(C)C)N1CCCNC1=O (stereo not drawn)	88.4
CCCc1nn(C)c2c(=O)nc(-c3cc(S(=O)(=O)N4CCN(C)CC4)ccc3OCC)[nH]c12.O=C(O)CC(O)(CC(=O)O)C(=O)O [Sildenafil Citrate]	118
C[N+]1(C)CCC(OC(=O)C(O)(c2ccccc2)C2CCCC2)C1.[Br-] (stereo not drawn) [Glycopyrrolate]	99.3

Kindly consider the entry below.
API: value(readout=cell viability, system=HCI11) for record CC12CCC(=O)C=C1CCC1C2C(O)CC2(C)C1CCC2(O)C(=O)CO (stereo not drawn) [Hydrocortisone] 113

###

cell viability overview
system: HCI13 (cells of an ER-positive luminal breast cancer xenograft); experiment: cell viability (% of vehicle); higher = less cytotoxic; details: 10 µM; 72 h
// no unit, no text: just the number

Record excerpt, results attached:
Molecule	System under test	Measurement
Nc1ccc(S(=O)(=O)Nc2ccccn2)cc1 [Sulfapyridine]	HCI13	138
Cc1cc(C)c2c(c1)C(N(Cc1cc(C(F)(F)F)cc(C(F)(F)F)c1)c1nnn(C)n1)CCCN2CC1CCC(C(=O)O)CC1 (centres undefined)	HCI13	51.4
CCOc1ccc2ccccc2c1C(=O)NC1C(=O)N2C1SC(C)(C)C2C(=O)[O-].O.[Na+] (centres undefined) [Nafcillin Sodium]	HCI13	117

Lab note: next molecule to report on.
Please report the recorded cell viability for CCN(CCO)CCCOc1ccc2c(Nc3cc(CC(=O)Nc4cccc(F)c4)[nH]n3)ncnc2c1 [Barasertib (AZD1152-HQPA)] . 97.3

###

system: HCI01 (cells of a triple-negative basal-like breast cancer xenograft); experiment: cell viability (% of vehicle); higher = less cytotoxic; details: 1 µM; 72 h
Label class 1 when cell viability < 90; otherwise class 0.

Solved entries:
Compound	Assigned label
CCN(CC)CCNC(=O)c1c(C)[nH]c(C=C2C(=O)Nc3ccc(F)cc32)c1C	class 1
CC[C@@]1(O)C(=O)OCc2c1cc1n(c2=O)Cc2cc3c(CN(C)C)c(O)ccc3nc2-1.Cl [Topotecan HCl]	class 1
C=C(c1ccc(C(=O)O)cc1)c1cc2c(cc1C)C(C)(C)CCC2(C)C	class 0
Clc1ccc(COC(Cn2ccnc2)c2ccc(Cl)cc2Cl)c(Cl)c1.O=[N+]([O-])O (stereo not drawn) [Miconazole Nitrate]	class 0
CCN1CCN(Cc2ccc(Nc3ncc(F)c(-c4cc(F)c5nc(C)n(C(C)C)c5c4)n3)nc2)CC1.CS(=O)(=O)O	class 1

cell viability under 90? Item: CN1CCCC1CCOC(C)(c1ccccc1)c1ccc(Cl)cc1.O=C(O)C=CC(=O)O (stereo not drawn) [Clemastine Fumarate] class 0

Here's an entry: Cl.Cl.Fc1ccc(C(c2ccc(F)cc2)N2CCN(CC=Cc3ccccc3)CC2)cc1 [Flunarizine 2HCl] . Is its cell viability below 90? class 0

###

test system: HCI01; experiment: cell viability (% of vehicle); higher = less cytotoxic; settings: 10 µM; 72 h
Lab note - cut at 100 for cell viability: true if strictly below, false if not.

Please review the entries below; each comes with its answer.
Compound	Assigned label
CNC(C)C1CCC(N)C(OC2C(N)CC(N)C(OC3OCC(C)(O)C(NC)C3O)C2O)O1.O=S(=O)(O)O (stereo not drawn) [Gentamycin Sulfate]	false
Nc1ccc(S(=O)(=O)Nc2ncccn2)cc1	false
Cc1ncc([N+](=O)[O-])n1CCO	true
COc1ccc2nc(S(=O)Cc3ncc(C)c(OC)c3C)[nH]c2c1 (stereo not drawn)	false

--- query ---
Could you please tell me whether cell viability recorded for C=C[C@]1(C)C[C@@H](OC(=O)CSC2C[C@H]3CC[C@@H](C2)N3C)[C@]2(C)[C@H](C)CC[C@]3(CCC(=O)[C@H]32)[C@@H](C)[C@@H]1O (stereo partly drawn) is less than 100? true

###

tested on: WHIM2 (cells of a triple-negative basal-like breast cancer xenograft); assay: cell viability of combination (% of vehicle); higher = less cytotoxic; settings: 1 µM; 72 h; partner dose: 10 nM
Readout label: cell viability of combination
Answer using only a numeral; do not append any unit.

Molecule	Measurement
CC(C)(C)NC(=O)C1CC2CCCCC2CN1CC(O)C(Cc1ccccc1)NC(=O)C(CC(N)=O)NC(=O)c1ccc2ccccc2n1.CS(=O)(=O)O (configuration not stated) [Saquinavir mesylate] + CN(C)C/C=C/C(=O)Nc1cc2c(Nc3ccc(F)c(Cl)c3)ncnc2cc1O[C@H]1CCOC1	47.9

Now for another entry.
Value lookup for cell viability of combination; key = CCCCCCCCCCCC1=C(O)C(=O)C=C(O)C1=O [Embelin] + CN(C)C/C=C/C(=O)Nc1cc2c(Nc3ccc(F)c(Cl)c3)ncnc2cc1O[C@H]1CCOC1 42.9

###

tested on: UCD52 (cells of a triple-negative basal-like breast cancer xenograft); assay: cell viability (% of vehicle); higher = less cytotoxic; conditions: 10 µM; 72 h
We begin with a simple list: items and their reported cell viability.

Before answering, review these 5 worked examples.
Molecule	Measurement
Clc1ccc(C(Cn2ccnc2)OCc2ccc(Sc3ccccc3)cc2)c(Cl)c1.O=[N+]([O-])O (configuration not stated) [Fenticonazole Nitrate]	59.1
COc1cc2nccc(Oc3ccc(NC(=O)C4(C(=O)Nc5ccc(F)cc5)CC4)cc3)c2cc1OC	88.3
COc1cc2c(Oc3ccc(NC(=O)C4(C(=O)Nc5ccc(F)cc5)CC4)cc3F)ccnc2cc1OCCCN1CCOCC1	28
CC(C)OC(=O)OCOP(=O)(COC(C)Cn1cnc2c(N)ncnc21)OCOC(=O)OC(C)C.O=C(O)C=CC(=O)O (configuration not stated) [Tenofovir Disoproxil Fumarate]	106
COC1C(OC(N)=O)C(O)C(Oc2ccc3c(O)c(NC(=O)c4ccc([O-])c(CC=C(C)C)c4)c(=O)oc3c2C)OC1(C)C.[Na+] (configuration not stated) [Novobiocin Sodium]	120

Moving on to the next molecule.
What does the record list as cell viability for NC(CO)(CO)CO.O=C(c1ccccc1)c1ccc2n1CCC2C(=O)O (configuration not stated) [Ketorolac tromethamine salt] ? 146

###

tested on: UCD52; experiment: cell viability (% of vehicle); higher = less cytotoxic; conditions: 10 µM; 72 h
Recorded measurements of cell viability, one per entry
When you answer, write just the number.

Reference set, count: 5
Compound	cell viability
CNC(=O)c1ccc(N2C(=S)N(c3ccc(C#N)c(C(F)(F)F)c3)C(=O)C2(C)C)cc1F [MDV3100 (Enzalutamide)]	117
CCCCCOC(=O)Nc1nc(=O)n(C2OC(C)C(O)C2O)cc1F (stereo not given)	112
CCC1OC(=O)C(C)C(OC2CC(C)(OC)C(O)C(C)O2)C(C)C(OC2OC(C)CC(N(C)C)C2O)C(C)(OC)CC(C)C(=O)C(C)C(O)C1(C)O (stereo not given)	95.5
CCN(CC)C(=O)C(C#N)=Cc1cc(O)c(O)c([N+](=O)[O-])c1	98.7
CC1(C)SC2C(NC(=O)C(NC(=O)N3CCNC3=O)c3ccccc3)C(=O)N2C1C(=O)[O-].[Na+] (stereo not given) [Azlocillin sodium salt]	97.8

For O=C(O)Cc1cc(I)c(Oc2ccc(O)c(I)c2)c(I)c1 , what is its reported cell viability? 75.6

Report cell viability for Cc1cc(C)cc(OCC2CNC(=O)O2)c1 (stereo not given) please. 105

Requested field: cell viability. Item: COc1ccccc1OCC(O)COC(N)=O (stereo not given) 104

So what does the record say about cell viability for CN(C)c1cc(NC(=O)CNC(C)(C)C)c(O)c2c1CC1CC3C(N(C)C)C(=O)C(C(N)=O)=C(O)C3(O)C(=O)C1=C2O (stereo not given) ? 96.7

# input compound: Cl.Cl.Clc1ccc(Nc2nnc(Cc3ccncc3)c3ccccc23)cc1 [Vatalanib (PTK787) 2HCl] ; wanted: its cell viability 55.4

Can you share its cell viability? I mean this compound: CN1CCC(COc2cnc(-c3cccc(Cn4nc(-c5cccc(C#N)c5)ccc4=O)c3)nc2)CC1 28

Report cell viability for CCOc1ccc(Cc2cc(C3OC(CO)C(O)C(O)C3O)ccc2Cl)cc1 (stereo not given) please. 78.8

Given the compound Cc1ccc(-n2nc(C(C)(C)C)cc2NC(=O)Nc2ccc(OCCN3CCOCC3)c3ccccc23)cc1 , what is its reported cell viability? 62.1

Reported cell viability, compound C[N+](C)(C)CCOC(=O)CCC(=O)OCC[N+](C)(C)C.O.O.[Cl-].[Cl-] [Succinylcholine Chloride Dihydrate] : ____ 61.6

Entry CC(CN(C)C)CN1c2ccccc2CCc2ccccc21.O=C(O)/C=C\C(=O)O (stereo not given) [Trimipramine (maleate)] has what cell viability? 86.9
